B1: EEHEE_rd4_0003 (parent)
chain: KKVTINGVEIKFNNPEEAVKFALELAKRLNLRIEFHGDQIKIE

# Variants of: B1
# assayRemarks: folding stability dG (cDNA display proteolysis); higher = more stable
# settings: PBS, room temperature
attributeMeasured: folding stability dG (kcal/mol)
Express it in kcal/mol; write the number only.

**Q:** Which folding stability dG is reported for this variant? KKVTINGVEIKFNNPEEAVKFALELAKILNLRIEFHGDQIKIE [R28I]
**A:** 2.54

**Q:** What value of folding stability dG has been reported for the following variant? KKVTINGVEIKFNNDEEAVKFALELAKRLNLRIEFHGDQIKIE [P15D]
**A:** 2.46

**Q:** Need folding stability dG of KKVTINGVEVKFNNPEEAVKFALELAKRLNLRIEFHGDQIKIE [I10V] , thanks.
**A:** 2.22

**Q:** Could you share which folding stability dG value was measured for VKVTINGVEIKFNNPEEAVKFALELAKRLNLRIEFHGDQIKIE [K1V] ?
**A:** 3.25

**Q:** Fill blank: measured folding stability dG of the variant KKVTINGVEIKFNNPEEAVKFALELAKRLNLRIDFHGDQIKIE [E34D] is ____.
**A:** 2.12

**Q:** For the variant PKVTINGVEIKFNNPEEAVKFALELAKRLNLRIEFHGDQIKIE [K1P] , what folding stability dG is on record?
**A:** 2.75

**Q:** Which folding stability dG value is on record for KKVTINGVEIKFNNPEEAVKFALELAKRLNLRIEFAGDQIKIE [H36A] ?
**A:** 2.62

**Q:** I'd like to know its folding stability dG. The variant in question is KKVTINGVEIKFNNPEEACKFALELAKRLNLRIEFHGDQIKIE [V19C]
**A:** 3.56

**Q:** Can you look up the measured folding stability dG of KKVTLNGVEIKFNNPEEAVKFALELAKRLNLRIEFHGDQIKIE [I5L] for me?
**A:** 2.39

**Q:** Could you tell me which folding stability dG is on file for KKVTIQGVEIKFNNPEEAVKFALELAKRLNLRIEFHGDQIKIE [N6Q] ?
**A:** 2.14

**Q:** For the variant shown here, KKVTINGVEIKFNNPEEAVKFALELAKRLNARIEFHGDQIKIE [L31A] , give the reported folding stability dG.
**A:** 2.72

**Q:** Entry under review: KKVTINGVEIKFNNPEEAVKFALELAKRLNLRIEGHGDQIKIE [F35G] . Reported folding stability dG?
**A:** 1.41

**Q:** Given the entry KKVTINWVEIKFNNPEEAVKFALELAKRLNLRIEFHGDQIKIE [G7W] , report its measured folding stability dG.
**A:** 2.54

**Q:** Bench note: what folding stability dG did KKFTINGVEIKFNNPEEAVKFALELAKRLNLRIEFHGDQIKIE [V3F] show?
**A:** 2.27

**Q:** I am curious: what folding stability dG value has been reported for KKVTINGVEIKFNNPEEAVKFALELAKRLNLRIEFHGDQTKIE [I40T] ?
**A:** 1.51

**Q:** I am curious: what folding stability dG value has been reported for KKVTINGVEIKFNNPEEAVKFALELAKRLNLRIEFHGDQIKFE [I42F] ?
**A:** 2.22

**Q:** Sample KKVTINGVEIKFNNPEEAVDFALELAKRLNLRIEFHGDQIKIE [K20D] — what was its folding stability dG?
**A:** 1.93

**Q:** folding stability dG lookup needed for KWVTINGVEIKFNNPEEAVKFALELAKRLNLRIEFHGDQIKIE [K2W] , thanks.
**A:** 2.88

**Q:** Please look up its folding stability dG: HKVTINGVEIKFNNPEEAVKFALELAKRLNLRIEFHGDQIKIE [K1H]
**A:** 2.89

**Q:** // query folding stability dG value for entry KKVTINGVEIKFNNPEKAVKFALELAKRLNLRIEFHGDQIKIE [E17K]
**A:** 2.3

**Q:** Need folding stability dG, item KKVTINGVEIKFNNPEEAVKFALELAKRLNLRIEKHGDQIKIE [F35K]
**A:** 1.78

**Q:** Entry KKVTINGVEIKFNNPEEAVKFALEEAKRLNLRIEFHGDQIKIE [L25E] has what folding stability dG?
**A:** 1.56

**Q:** folding stability dG lookup needed for KKVTINGVEIKFNNPIEAVKFALELAKRLNLRIEFHGDQIKIE [E16I] , thanks.
**A:** 2.59

**Q:** Which folding stability dG value belongs to KKVTINGVLIKFNNPEEAVKFALELAKRLNLRIEFHGDQIKIE [E9L] ?
**A:** 2.78

**Q:** Find the recorded folding stability dG belonging to KKVTINGVEIKFNNPEEAMKFALELAKRLNLRIEFHGDQIKIE [V19M] and report it.
**A:** 2.94

**Q:** What measured folding stability dG goes with KKVTINGVEIKFNNPEEAVKFALELAKRKNLRIEFHGDQIKIE [L29K] ?
**A:** 1.6

**Q:** # input variant: KKVTQNGVEIKFNNPEEAVKFALELAKRLNLRIEFHGDQIKIE [I5Q] ; wanted: its folding stability dG
**A:** 1.66

**Q:** Reported folding stability dG for WKVTINGVEIKFNNPEEAVKFALELAKRLNLRIEFHGDQIKIE [K1W] : what is it?
**A:** 3.51

**Q:** Please report the recorded folding stability dG for KKVTINGEEIKFNNPEEAVKFALELAKRLNLRIEFHGDQIKIE [V8E] .
**A:** 1.99

**Q:** Reported folding stability dG for KKVTINGVEIKFNNPENAVKFALELAKRLNLRIEFHGDQIKIE [E17N] : what is it?
**A:** 2.24

**Q:** Request the reported folding stability dG associated with KKVTINGVEIKFNCPEEAVKFALELAKRLNLRIEFHGDQIKIE [N14C]
**A:** 2.98

**Q:** Looking for the measured folding stability dG of KKVTINGVEIKFNNPEEAVKFALELRKRLNLRIEFHGDQIKIE [A26R] , can you help?
**A:** 1.73

**Q:** Quick check: folding stability dG of KKVTINGVEIKFGNPEEAVKFALELAKRLNLRIEFHGDQIKIE [N13G] ?
**A:** 2.44
